# Test system: SKOV3
# ASSAY NAME: IC261 loss of cell viability, ovarian cancer cell panel
# Type: cell-based
# MEASUREMENT CONDITIONS: Homo sapiens, SK-OV-3
pIC50: −log10 of the molar value.

- STRUCTURE SMILES: "COc1cc(OC)c(/C=C2/C(=O)Nc3ccccc32)c(OC)c1"
  pIC50: 5.33

* * *

# ASSAY NAME: Cell viability with increasing IC261, normal c-MYC expressing cells
# Type: cell-based
# MEASUREMENT CONDITIONS: human; IC261 at 0.5 log μM and above
# Description: The effect of CSNK1ε on the cell viability of ovarian cancer lines was investigated in vitro. First, HFF (non-cancer primary cells) with control vector, RMG-1 (normal c-MYC expressing), CaOV3 (normal c-MYC expressing), HFF with cMYC induced (amplified c-MYC expressing), TOV112D (amplified c-MYC expressing), and COLO720E (amplified c-MYC expressing) were exposed to increasing concentrations of IC261. Cell viability was assessed as described above.

- STRUCTURE SMILES: "COc1cc(OC)c(/C=C2/C(=O)Nc3ccccc32)c(OC)c1"
  viability: "≥ 75%"

* * *

# System: IGROV-1
# ASSAY NAME: IC261 loss of cell viability, ovarian cancer cell panel
# Type: cell-based
# MEASUREMENT CONDITIONS: Homo sapiens
pIC50: −log10 of the molar value.

- STRUCTURE SMILES: "COc1cc(OC)c(/C=C2/C(=O)Nc3ccccc32)c(OC)c1"
  TEST TARGET: "IGROV-1"
  pIC50: 3.23

* * *

# Tested on: OAW42
# ASSAY NAME: IC261 loss of cell viability, ovarian cancer cell panel
# Format: cell-based
# MEASUREMENT CONDITIONS: Homo sapiens, OAW-42

- COMPOUND: "COc1cc(OC)c(/C=C2/C(=O)Nc3ccccc32)c(OC)c1 [IC261]"
  IC50, µM: 6.61
